- measurement description: Cmax in CD1 mouse at 5 mg/kg, po after 0.25 to 24 hrs
- Assay type: ADME, organism-based
- Design: dose 5 mg/kg, route oral
- settings: in vivo
reported property: Cmax (ng/mL)
Give the quantity in ng/mL, number only.

**Query** Record request: Cmax value, item COC(=O)N[C@H](C(=O)N1CCC[C@H]1c1nc2ccc([C@H]3CC[C@H](c4ccc5nc([C@@H]6CCCN6C(=O)[C@@H](NC(=O)OC)C(C)C)[nH]c5c4)N3c3ccc(C(C)(C)C)cc3)cc2[nH]1)C(C)C
**Result** 270

* * *

- System: Hepatitis C virus (isolate H77)
- measurement description: Resistance ratio of EC50 for Hepatitis C virus genotype 1a H77 replicon NS5A Y93C mutant to EC50 for Hepatitis C virus genotype 1a H77 replicon NS5A
Examples of compounds with documented Ratio EC50 follow.
Write the value as a bare number.

| molecular string | Ratio EC50 |
| --- | --- |
| COC(=O)N[C@H](C(=O)N1CCC[C@H]1c1nc2cc([C@H]3CC[C@H](c4cc5nc([C@@H]6CCCN6C(=O)[C@@H](NC(=O)OC)C(C)C)[nH]c5cc4F)N3c3cc(F)c(N4CCCCC4)c(F)c3)c(F)cc2[nH]1)C(C)C | 4 |
| COC(=O)N[C@H](C(=O)N1CCC[C@H]1c1nc2ccc([C@H]3CC[C@H](c4ccc5nc([C@@H]6CCCN6C(=O)[C@@H](NC(=O)OC)C(C)C)[nH]c5c4)N3c3ccc(C(C)(C)C)cc3)cc2[nH]1)C(C)C | 8 |
| COC(=O)N[C@H](C(=O)N1CCC[C@H]1c1nc2cc([C@H]3CC[C@H](c4cc5nc([C@@H]6CCCN6C(=O)[C@@H](NC(=O)OC)C(C)C)[nH]c5cc4F)N3c3ccc(C(C)(C)C)cc3)c(F)cc2[nH]1)C(C)C | 3 |

Kindly consider the entry below.
**Query** Form field - read-out: Ratio EC50; system: Hepatitis C virus (isolate H77); submitted item: COC(=O)N[C@H](C(=O)N1CCC[C@H]1c1nc2cc([C@H]3CC[C@H](c4ccc5[nH]c([C@@H]6CCCN6C(=O)[C@@H](NC(=O)OC)C(C)C)nc5c4)N3c3cc(F)c(N4CCCCC4)c(F)c3)ccc2[nH]1)C(C)C
**Result** 6

* * *

- measurement description: Inhibition of Hepatitis C virus genotype 1a H77 replicon NS5A transfected in human HuH7 cells assessed as decrease in replication of viral replicon after 4 days by luciferase reporter gene assay
- Type: cell-based, Hepatitis C virus (isolate H77)
- settings: Huh-7, 96 h
Readings of EC50 for the listed molecules
Provide only the numeric value, understood in nM.

Record excerpt, results attached:
| molecular string | numeric readout |
| --- | --- |
| COC(=O)N[C@H](C(=O)N1CCC[C@H]1c1nc2c(Cl)c([C@H]3CC[C@H](c4ccc5[nH]c([C@@H]6CCCN6C(=O)[C@@H](NC(=O)OC)C(C)C)nc5c4Cl)N3c3ccc(C(C)(C)C)cc3)ccc2[nH]1)C(C)C | 0.034 |
| COC(=O)N[C@H](C(=O)N1CCC[C@H]1c1nc2cc(-c3ccc(-c4cc(F)c5[nH]c([C@@H]6CCCN6C(=O)[C@@H](NC(=O)OC)C(C)C)nc5c4)cc3)cc(F)c2[nH]1)C(C)C | 0.579 |

Now let's try a different one.
**Query** Item COC(=O)N[C@H](C(=O)N1CCC[C@H]1c1nc2c(F)c(-c3ccc(-c4c(F)cc5[nH]c([C@@H]6CCCN6C(=O)[C@@H](NC(=O)OC)C(C)C)nc5c4F)cc3)c(F)cc2[nH]1)C(C)C has what recorded EC50?
**Result** 0.507

* * *

- measurement description: AUC in CD1 mouse at 30 mg/kg, po after 0.25 to 24 hrs
- Assay type: ADME, organism-based
- Parameters: time lower 0.25 hr, dose 30 mg/kg, time upper 24 hr, route oral
- settings: in vivo
reported property: AUC (ng·h/mL)
Field: numeric (ng·h/mL). Do not append units.

**Query** I would be grateful if you could share the reported AUC for COC(=O)N[C@H](C(=O)N1CCC[C@H]1c1nc2cc([C@H]3CC[C@H](c4cc5nc([C@@H]6CCCN6C(=O)[C@@H](NC(=O)OC)C(C)C)[nH]c5cc4F)N3c3cc(F)c(N4CCCCC4)c(F)c3)c(F)cc2[nH]1)C(C)C .
**Result** 48200

* * *

- measurement description: AUC in Sprague-Dawley rat at 3 mg/kg, po administered via gavage after 0.25 to 24 hrs
- Type: ADME, organism-based
- Design: time upper 24 hr, dose 3 mg/kg, time lower 0.25 hr, route oral
- settings: in vivo
Recorded measurements of AUC, one per entry

| molecular string | result |
| --- | --- |
| COC(=O)N[C@H](C(=O)N1CCC[C@H]1c1nc2ccc([C@H]3CC[C@H](c4ccc5nc([C@@H]6CCCN6C(=O)[C@@H](NC(=O)OC)C(C)C)[nH]c5c4)N3c3ccc(C(C)(C)C)cc3)cc2[nH]1)C(C)C | 560 ng·h/mL |
| COC(=O)N[C@H](C(=O)N1CCC[C@H]1c1nc2cc([C@H]3CC[C@H](c4cc5nc([C@@H]6CCCN6C(=O)[C@@H](NC(=O)OC)C(C)C)[nH]c5cc4F)N3c3cc(F)c(N4CCCCC4)c(F)c3)c(F)cc2[nH]1)C(C)C | 2880 ng·h/mL |

Read the next record carefully.
**Query** I have this molecule here, COC(=O)N[C@H](C(=O)N1CCC[C@H]1c1nc2cc([C@H]3CC[C@H](c4ccc5[nH]c([C@@H]6CCCN6C(=O)[C@@H](NC(=O)OC)C(C)C)nc5c4)N3c3cc(F)c(N4CCCCC4)c(F)c3)ccc2[nH]1)C(C)C , and I need its recorded AUC.
**Result** 30 ng·h/mL

* * *

- measurement description: Inhibition of Hepatitis C virus genotype 1a H77 replicon NS5A transfected in human HuH7 cells assessed as decrease in replication of viral replicon in presence of 40% human plasma after 4 days by luciferase reporter gene assay
- Assay type: cell-based, Hepatitis C virus (isolate H77)
- settings: Huh-7, Plasma, 96 h
Attribute: pEC50
pEC50 here is simply -log10 of the concentration when that concentration is written in mol/L.

| molecular string | numeric readout |
| --- | --- |
| COC(=O)N[C@H](C(=O)N1CCC[C@H]1c1nc2ccc([C@H]3CC[C@H](c4ccc5nc([C@@H]6CCCN6C(=O)[C@@H](NC(=O)OC)C(C)C)[nH]c5c4)N3c3ccc(C(C)(C)C)cc3)cc2[nH]1)C(C)C | 9.81 |
| COC(=O)N[C@H](C(=O)N1CCC[C@H]1c1nc2cc([C@H]3CC[C@H](c4ccc5[nH]c([C@@H]6CCCN6C(=O)[C@@H](NC(=O)OC)C(C)C)nc5c4)N3c3cc(F)c(N4CCCCC4)c(F)c3)ccc2[nH]1)C(C)C | 9.81 |
| COC(=O)N[C@H](C(=O)N1CCC[C@H]1c1nc2c(F)c([C@H]3CC[C@H](c4ccc5[nH]c([C@@H]6CCCN6C(=O)[C@@H](NC(=O)OC)C(C)C)nc5c4F)N3c3ccc(C(C)(C)C)cc3)ccc2[nH]1)C(C)C | 9.08 |
| COC(=O)N[C@H](C(=O)N1CCC[C@H]1c1nc2c(Cl)c([C@H]3CC[C@H](c4ccc5[nH]c([C@@H]6CCCN6C(=O)[C@@H](NC(=O)OC)C(C)C)nc5c4Cl)N3c3ccc(C(C)(C)C)cc3)ccc2[nH]1)C(C)C | 8.73 |
| COC(=O)N[C@H](C(=O)N1CCC[C@H]1c1nc2cc([C@H]3CC[C@H](c4cc5nc([C@@H]6CCCN6C(=O)[C@@H](NC(=O)OC)C(C)C)[nH]c5cc4F)N3c3ccc(C(C)(C)C)cc3)c(F)cc2[nH]1)C(C)C | 9.67 |

**Query** Given the entry COC(=O)N[C@H](C(=O)N1CCC[C@H]1c1nc2c(C)c([C@H]3CC[C@H](c4ccc5[nH]c([C@@H]6CCCN6C(=O)[C@@H](NC(=O)OC)C(C)C)nc5c4C)N3c3ccc(C(C)(C)C)cc3)ccc2[nH]1)C(C)C , report its measured pEC50.
**Result** 9.28

**Query** Consider the compound shown here: COC(=O)N[C@H](C(=O)N1CCC[C@H]1c1nc2cc([C@H]3CC[C@H](c4cc5nc([C@@H]6CCCN6C(=O)[C@@H](NC(=O)OC)C(C)C)[nH]c5cc4F)N3c3cc(F)c(N4CCCCC4)c(F)c3)c(F)cc2[nH]1)C(C)C What is its recorded pEC50?
**Result** 10.02

* * *

- measurement description: Inhibition of Hepatitis C virus genotype 1b Con1 replicon NS5A transfected in human HuH7 cells assessed as decrease in replication of viral replicon after 4 days by luciferase reporter gene assay
- Assay type: cell-based, Hepatitis C virus (isolate Con1)
- settings: Huh-7, 96 h
Recorded EC50, one value per entry.
Please reply with the bare figure in nM and do not write the unit itself.

Solved entries:
| molecular string | units label | EC50 |
| --- | --- | --- |
| COC(=O)N[C@H](C(=O)N1CCC[C@H]1c1nc2cc(-c3ccc(-c4cnc5[nH]c([C@@H]6CCCN6C(=O)[C@@H](NC(=O)OC)C(C)C)nc5c4)cc3)cnc2[nH]1)C(C)C | nM | 1.54 |
| COC(=O)N[C@H](C(=O)N1CCC[C@H]1c1nc2cc(-c3ccc(-c4cc5nc([C@@H]6CCCN6C(=O)[C@@H](NC(=O)OC)C(C)C)[nH]c5cc4C)cc3)c(C)cc2[nH]1)C(C)C | nM | 0.008 |
| COC(=O)N[C@H](C(=O)N1CCC[C@H]1c1nc2c(Cl)c([C@H]3CC[C@H](c4ccc5[nH]c([C@@H]6CCCN6C(=O)[C@@H](NC(=O)OC)C(C)C)nc5c4Cl)N3c3ccc(C(C)(C)C)cc3)ccc2[nH]1)C(C)C | nM | 0.013 |

**Query** // lookup EC50 for COC(=O)N[C@H](C(=O)N1CCC[C@H]1c1nc2c(F)c([C@H]3CC[C@H](c4ccc5[nH]c([C@@H]6CCCN6C(=O)[C@@H](NC(=O)OC)C(C)C)nc5c4F)N3c3ccc(C(C)(C)C)cc3)ccc2[nH]1)C(C)C
**Result** 0.01
